# Test system: Colorectal cell line KM12 (harboring endogenous TPM3-TRKA fusion gene)
# ASSAY_EXPLANATION: KM12 cell proliferation assay (CellTiter-Glo)
# Assay type: cell-based
# EXPERIMENTAL_CONTEXT: Homo sapiens, 72 hours incubation, read-out: KM 12 cell prolif. IC50
// values below are reported pIC50
Hey, just a heads up that pIC50 is the negative log base 10 of the concentration in molar.

Check out these entries, answers already filled in.
C[C@H]1Nc2ccn3ncc(c3n2)C(=O)NCCCOc2ccc(F)cc21    8.24
C[C@H]1CNC(=O)c2cnn3ccc(nc23)N(C)Cc2cc(F)ccc2O1    9.52
C[C@@H]1COc2ccc(F)cc2CN(C)c2ccn3ncc(c3n2)C(=O)N1    9.40
CN1Cc2cc(F)ccc2[S+]([O-])CCNC(=O)c2cnn3ccc1nc23 (stereo not drawn)    6.75
O=C1NCCCOc2ccc(F)cc2CCc2ccn3ncc1c3n2    7.82
CC1Nc2ccn3ncc(c3n2)C(=O)NCCOc2ccc(F)cc21 (stereo not drawn)    8.49
CCCN1Cc2cc(F)ccc2OCCNC(=O)c2cnn3ccc1nc23    8.00
O=C1NCCOc2ccc(F)cc2C(C2CC2)Nc2ccn3ncc1c3n2 (stereo not drawn)    7.76
O=C1NCCOc2ccc(F)cc2CN(C2CC2)c2ccn3ncc1c3n2    8.82
CCN1Cc2cc(F)ccc2OCCNC(=O)c2cnn3ccc1nc23    8.59

Measured pIC50 for this entry "C[C@H]1Nc2ccn3ncc(c3n2)C(=O)NCCOc2ccc(F)cc21" on Colorectal cell line KM12 (harboring endogenous TPM3-TRKA fusion gene): 8.89

# lookup: "CN1Cc2cc(F)ccc2OCCCNC(=O)c2cnn3ccc1nc23" on Colorectal cell line KM12 (harboring endogenous TPM3-TRKA fusion gene), pIC50 = 9.22

Record "CN1Cc2cc(F)ccc2SCCNC(=O)c2cnn3ccc1nc23" / Colorectal cell line KM12 (harboring endogenous TPM3-TRKA fusion gene), pIC50 recorded as 9.52

So the reported pIC50 for CC1Nc2ccn3ncc(c3n2)C(=O)NCCOc2ccc(Cl)cc21 (stereo not drawn) , on Colorectal cell line KM12 (harboring endogenous TPM3-TRKA fusion gene), turned out to be 9.10

Let me check: "C[C@@H]1CNC(=O)c2cnn3ccc(nc23)N(C)Cc2cc(F)ccc2O1" , system Colorectal cell line KM12 (harboring endogenous TPM3-TRKA fusion gene), measured pIC50 is 9.70

# CC(C)C1Nc2ccn3ncc(c3n2)C(=O)NCCOc2ccc(F)cc21 (stereo not drawn) with Colorectal cell line KM12 (harboring endogenous TPM3-TRKA fusion gene): pIC50 is 8.55

Observed pIC50 on Colorectal cell line KM12 (harboring endogenous TPM3-TRKA fusion gene), entry "C[C@H]1CNC(=O)c2cnn3ccc(nc23)N[C@H](CO)c2cc(F)ccc2O1" , equals 7.12

The recorded pIC50 with Colorectal cell line KM12 (harboring endogenous TPM3-TRKA fusion gene) for "CC(C)N1Cc2cc(F)ccc2OCCNC(=O)c2cnn3ccc1nc23" was 9.46

====

# Test system: Essential thrombocythemia cell line SET-2 cells (harboring endogenous JAK2 point mutation)
# ASSAY_EXPLANATION: SET-2 cell proliferation assay (CellTiter-Glo)
# Assay type: cell-based
# EXPERIMENTAL_CONTEXT: Homo sapiens, 72 hours incubation, read-out: SET2 cell proli. IC50
Overview of reported IC50 across a group of molecules:

Below, 4 molecules whose answers are already recorded.
C[C@H]1Nc2ccn3ncc(c3n2)C(=O)NC[C@H](O)COc2ccc(F)cc21    1540 nM
C[C@@H]1CNC(=O)c2cnn3ccc(nc23)N(C)Cc2cc(F)ccc2O1    > 10000 nM
CN1Cc2cc(F)ccc2OCCNC(=O)c2cnc3ccc1nn23    2000 nM
O=C1NCCOc2ccc(F)cc2CN(C2CC2)c2ccn3ncc1c3n2    7000 nM

We next turn to a different molecule, shown below.
Sure, the documented IC50 for "C[C@H]1CNC(=O)c2cnn3ccc(nc23)CCc2cc(F)ccc2O1" is 870 nM
